Where do these numbers come from? They come from the supplement of paper PMC12645437.

ASSAYED TARGET: T1, CRBN, Q96SW2;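 also: pooled lentiviral library of zinc finger degron-EGFP fusions in mCherry-positive Jurkat cells, FACS-sorted after compound exposure, with degron abundance counted by next-generation sequencing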
T1 chain: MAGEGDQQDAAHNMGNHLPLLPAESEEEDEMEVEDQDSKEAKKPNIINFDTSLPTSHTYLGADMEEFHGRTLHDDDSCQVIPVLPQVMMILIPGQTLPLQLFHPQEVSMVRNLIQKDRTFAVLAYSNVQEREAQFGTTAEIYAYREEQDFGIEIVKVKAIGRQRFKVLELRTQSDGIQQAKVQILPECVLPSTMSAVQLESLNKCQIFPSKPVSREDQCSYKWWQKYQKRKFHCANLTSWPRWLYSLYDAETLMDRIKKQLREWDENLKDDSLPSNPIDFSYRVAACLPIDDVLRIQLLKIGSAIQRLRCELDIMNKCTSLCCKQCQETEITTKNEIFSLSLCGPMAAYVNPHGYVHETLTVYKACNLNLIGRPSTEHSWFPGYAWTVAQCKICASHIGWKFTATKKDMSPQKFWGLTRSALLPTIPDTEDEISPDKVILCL
ASSAY PROTOCOL: log2 fold change of degron read counts, EGFP-low vs EGFP+ sorted cells (limma voom), compound-induced degradation; higher = more compound-induced degradation of the degron-EGFP fusion; degrons are variants of IKZF1/3 zinc finger 2; compound dose not given here
RECORDED CONDITIONS: Jurkat; 18 h; compound: thalidomide
Over roughly 8,300 sequences, “log2 fold change of degron read counts, EGFP-low vs EGFP+ sorted cells (limma voom), compound-induced degradation” has its median near -1.1; the highest 2% begin near 3.2. The full list was thinned out, with the highest values kept by preference.
MEASUREMENT TYPE: log2 fold change of degron read counts

// worked examples, log2 fold change of degron read counts included
BIOPOLYMER SEQUENCE	log2 fold change of degron read counts
FRCSVCGHLFTQKGNLLRHIKL [46F_47R_49S_50V_52G_53H_54L_55F_67L_, Q9UKT9]	-2.39
LGCPICGFACTQKGNLLRHIKL [46L_47G_49P_50I_52G_53F_54A_55C_67L_, Q9UKT9]	1.09
FSCPICGHVFTQKGNLLRHIKL [46F_47S_49P_50I_52G_53H_54V_55F_67L_, Q9UKT9]	-1.64
FHCEICGRSFTQKGNLLRHIKL [46F_47H_49E_50I_52G_53R_54S_55F_67L_, Q9UKT9]	-2.11
FVCNQCGARFTQKGNLLRHIKL [46F_47V_49N_50Q_52G_53A_54R_55F_67L_, Q9UKT9]	-0.598
FQCDVCGAQFTQKGNLLRHIKL [46F_47Q_49D_50V_52G_53A_54Q_55F_67L_, Q9UKT9]	2.41

(Q) # input sequence: FECDVCGAQFTQKGNLLRHIKL [46F_47E_49D_50V_52G_53A_54Q_55F_67L_, Q9UKT9] ; wanted: its log2 fold change of degron read counts
(A) -0.629

(Q) Recorded log2 fold change of degron read counts of FFCDQCGAEFTQKGNLLRHIKL [46F_47F_49D_50Q_52G_53A_54E_55F_67L_, Q9UKT9] , please.
(A) -2.75

(Q) Which measured log2 fold change of degron read counts value corresponds to FSCPQCGARFTQKGNLLRHIKL [46F_47S_49P_50Q_52G_53A_54R_55F_67L_, Q9UKT9] ?
(A) -0.61

(Q) Which log2 fold change of degron read counts value belongs to FFCSVCGHHFTQKGNLLRHIKL [46F_47F_49S_50V_52G_53H_54H_55F_67L_, Q9UKT9] ?
(A) -1.83
